Assay: pKa of the basic amine
Parameter Measured: pKa
Just the number, please, no unit after it.

Solved entries:
record_smiles=Cc1cc(-c2nc3ccccc3n2C[C@@H]2CCCN(C(=O)C3CCN(C(C)C)CC3)C2)cn(C)c1=O measured_number=9.6
record_smiles=Cc1cc(-c2nc3ccccc3n2C[C@@H]2CCCN(C(=O)C3CCN(CCF)CC3)C2)cn(C)c1=O measured_number=7.3

With those in mind, consider the next compound.
## Input Requested field: pKa. Item: Cc1cc(-c2nc3ccccc3n2C[C@@H]2CCCN(C(=O)C3CCN(CC(F)F)CC3)C2)cn(C)c1=O
## Output 4.2

====

System: BRD4 BD1
Format: binding, human
Conditions: TR-FRET
Parameter Measured: BRD4 BD1 FRET pIC50

record_smiles=CC(=O)N1CCC[C@@H](Cn2c(-c3cc(C)c(=O)n(C)c3)nc3cc(Br)ccc32)C1 result="8.0 ± 0.06 (2)"
record_smiles=Cc1cc(-c2nc3ccccc3n2C[C@@H]2CCCN(C(=O)[C@H]3CCNC3)C2)cn(C)c1=O result=7.6
record_smiles=Cc1cc(-c2nc3ccccc3n2CC2CCOCC2)cn(C)c1=O result=7.2

## Input May I ask what BRD4 BD1 FRET pIC50 has been recorded for Cc1cc(-c2nc3ccccc3n2C[C@@H]2CCCNC2)cn(C)c1=O ?
## Output 6.2

====

Test: Chromatographic LogD at pH 7.4
Settings: pH 7.4
Parameter Measured: chromatographic logD
// no unit string in output, number only

Known chromatographic logD results, listed for orientation:
compound="Cc1cc(-c2nc3ccccc3n2C[C@@H]2CCCN(C(=O)C3CCN(CC(F)F)CC3)C2)cn(C)c1=O [Compound 35]" measured_number=3.2
compound="Cc1cc(-c2nc3ccccc3n2C[C@@H]2CCCN(C(=O)[C@H]3CC[C@H](N)C3)C2)cn(C)c1=O [Compound 25]" measured_number=1.4
compound="Cc1cc(-c2nc3ccccc3n2C[C@@H]2CCCN(C(=O)c3cnc[nH]3)C2)cn(C)c1=O [Compound 26]" measured_number=1.9
compound="Cc1cc(-c2nc3ccccc3n2C[C@@H]2CCCN(C(=O)C3CCN(CCF)CC3)C2)cn(C)c1=O [Compound 34]" measured_number=2.5
compound="Cc1cc(-c2nc3ccccc3n2C[C@@H]2CCCN(C(=O)C3CCN(C(C)C)CC3)C2)cn(C)c1=O [Compound 31]" measured_number=1.7

## Input Recorded chromatographic logD of Cc1cc(-c2nc3ccccc3n2C[C@@H]2CCCN(C(=O)[C@H]3C[C@H](N)C3)C2)cn(C)c1=O [Compound 23] , please.
## Output 1.2

## Input Also Cc1cc(-c2nc3ccccc3n2C[C@@H]2CCCN(C(=O)C3CCCN(C)C3)C2)cn(C)c1=O (stereo partly drawn) [Compound 29] , if possible.
## Output 1.7

## Input Now the compound Cc1cc(-c2nc3ccccc3n2C[C@@H]2CCCN(C(=O)C3CCOCC3)C2)cn(C)c1=O [Compound 32]
## Output 2.7

## Input Input CC(=O)N1CCC[C@@H](Cn2c(-c3cc(C)c(=O)n(C)c3)nc3cc(Br)ccc32)C1 [Compound 14]
## Output 3.3

====

Test system: BRD4 BD1
Format: binding, human
Details: TR-FRET
Parameter Measured: BRD4 BD1 FRET pIC50
// print number alone

molecule=Cc1cc(-c2nc3ccccc3n2C[C@@H]2CCCN(C(=O)CCCN)C2)cn(C)c1=O measured_number=7.8
molecule=Cc1cc(-c2nc3ccccc3n2C[C@@H]2CCCN(C(=O)[C@H]3C[C@H](N)C3)C2)cn(C)c1=O measured_number=7.9
molecule=Cc1cc(-c2nc3ccccc3n2C[C@@H]2CCCN(C(=O)C3CNC3)C2)cn(C)c1=O measured_number=8.0
molecule="CC(=O)N1CCC[C@H](Cn2c(-c3cc(C)c(=O)n(C)c3)nc3ccccc32)C1 [(R)-12]" measured_number=7.5

Turning now to a further molecule:
## Input What value of BRD4 BD1 FRET pIC50 has been reported for the following molecule? CC(=O)N1CCC(C(=O)N2CCC[C@@H](Cn3c(-c4cc(C)c(=O)n(C)c4)nc4ccccc43)C2)CC1
## Output 6.5
